Catalogue of compounds with associated GI50
- System: UACC-62
- assayDetails: NCI tumour cell line growth inhibition, 48 h
Activity calls are given as the source filed them. Rule as the data show it: active = GI50 up to about 1.1 µM and inactive = higher. Starred links: 1 amine or outer side, 2 acyl side, 3 side chain; linkers in the order of their positions; H or OH if unused. Non-standard residues stand in square brackets, D forms with d. Residues, ends and D or L forms follow the SMILES beside them. *: point of attachment. X47 = CCC(=O)CC1CC(C)CC(C(=O)[*:2])N1[*:1]; X46 = CCCCCCCCC(C)C(=O)*; Aib = CC(C)(N)C(=O)O; X48 = CC(CN(C)CCO)N*

compound: CC(=O)OCCOCn1cnc2c(Cl)nc(Cl)nc21
GI50: 16.1 µM (inactive)
--
compound: CC1=CC2(C)C=C[C@@H]1C(=O)[C@@]1(C)CC[C@@](O)(C(C)C)[C@H]1CC2
GI50: 20.1 µM (inactive)
--
compound: O=C1Nc2ccccc2C(=O)/C1=C/NC(=S)NCCc1ccccc1
GI50: > 100 µM (inactive)
--
compound: CCCCCCCCC(C)C(=O)N1CCCC1C(=O)N1C(CC(=O)CC)CC(C)CC1C(=O)NC(C)C(=O)NC(C)(C)C(=O)NC(C)(C)C(=O)NC(C(=O)NC(C)C(=O)NC(C)(C)C(=O)NC(C)(C)C(=O)NC(C)CN(C)CCO)C(C)CC (stereo not drawn) (X46-P[X47]A[Aib][Aib]IA[Aib][Aib]-X48; configuration not given here)
GI50: 1.89 µM (inactive)
--
compound: CC(C)(CO)N1C(=O)c2ccccc2C1(O)c1ccc(Cl)cc1 (stereo not drawn)
GI50: > 100 µM (inactive)
--
compound: O=C(c1ccccc1)c1c(CC(O)c2ccccc2)n(C(=O)c2ccccc2)c2ccccc12 (stereo not drawn)
GI50: 46.3 µM (inactive)
--
compound: CCCCCCCCCCCCCCCCCc1nc(Cl)nc(Cl)c1Cl
GI50: > 100 µM (inactive)
--
compound: Cn1c(=O)c2nc3c(=O)n(C)c(=O)n(CC(N)=O)c3nc2n(C)c1=O
GI50: > 100 µM (inactive)
